# target-or-system: glucocerebrosidase (Gcase) (Homo sapiens)
# Construct: micellar solution containing 10 nM GCase and 100 nM saposin C (Enzo ALX-201-262-C050)
# Sequence (P04062 40-536): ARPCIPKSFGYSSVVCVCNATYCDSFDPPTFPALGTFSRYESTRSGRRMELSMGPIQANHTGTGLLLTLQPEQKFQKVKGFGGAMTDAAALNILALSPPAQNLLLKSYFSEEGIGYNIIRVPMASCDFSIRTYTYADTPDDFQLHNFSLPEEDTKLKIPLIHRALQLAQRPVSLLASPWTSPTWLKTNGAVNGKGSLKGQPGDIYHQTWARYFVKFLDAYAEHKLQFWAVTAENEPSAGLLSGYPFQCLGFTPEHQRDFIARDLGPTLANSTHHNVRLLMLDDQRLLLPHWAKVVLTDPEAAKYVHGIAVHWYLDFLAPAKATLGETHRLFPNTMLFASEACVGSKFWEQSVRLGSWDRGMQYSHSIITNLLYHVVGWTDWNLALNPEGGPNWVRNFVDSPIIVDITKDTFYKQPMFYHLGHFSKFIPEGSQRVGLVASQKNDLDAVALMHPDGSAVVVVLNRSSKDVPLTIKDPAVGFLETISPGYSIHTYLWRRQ
# test-name: Glucocerebrosidase (Gcase) activation assay, 4-methylumbelliferyl-beta-D-glucopyranoside substrate, with saposin C
# Type: biochemical
# settings: read-out: Percent Gcase Activation 0.1 μM Test Compound
property: activation at 0.1 µM

// solved cases for activation at 0.1 µM follow
compound	property	result
Cc1cccc2ncc(C(=O)Nc3ccc(-n4ccnc4)cc3)c(=O)n12	activation at 0.1 µM	< 5%
Cc1ccn2c(=O)c(C(=O)NC3CCc4ccccc4C3)cnc2c1 (stereo not drawn)	activation at 0.1 µM	< 5%
O=C(NC1CCCc2ccccc21)c1cnc2n(c1=O)CCS2 (stereo not drawn)	activation at 0.1 µM	< 5%
Cc1cccc2ncc(C(=O)NC3CCc4ccccc4C3)c(=O)n12 (stereo not drawn)	activation at 0.1 µM	< 5%
CCCCC1CCC(NC(=O)c2cnc3n(c2=O)CC(C)S3)CC1 (stereo not drawn)	activation at 0.1 µM	< 5%

Prompt line: Bench note: what activation at 0.1 µM did Cc1cccc2ncc(C(=O)NC3CCc4ccccc43)c(=O)n12 (stereo not drawn) show?
Response line: < 5%

Prompt line: Bench note: what activation at 0.1 µM did Cc1cccc2ncc(C(=O)NC3CCCc4ccccc43)c(=O)n12 (stereo not drawn) show?
Response line: 5 to 20%

Prompt line: Bench note: what activation at 0.1 µM did `Cc1csc2ncc(C(=O)Nc3ccc(-c4cocn4)cc3)c(=O)n12` show?
Response line: < 5%

Prompt line: Bench note: what activation at 0.1 µM did `CCN1CCN(c2ccc(NC(=O)c3cnc4n(c3=O)CCS4)cc2)CC1` show?
Response line: < 5%

Prompt line: Bench note: what activation at 0.1 µM did `CC(C)c1ccc(NC(=O)c2cnc3sccn3c2=O)cn1` show?
Response line: < 5%

Prompt line: Bench note: what activation at 0.1 µM did CCC(C)c1ccc(NC(=O)c2cnc3ccc(C)cn3c2=O)cc1 (stereo not drawn) show?
Response line: < 5%

Prompt line: Bench note: what activation at 0.1 µM did CCCCC1CCC(NC(=O)c2cnc3n(c2=O)C(C)CS3)CC1 (stereo not drawn) show?
Response line: 5 to 20%

Prompt line: Bench note: what activation at 0.1 µM did O=C(NC1CCc2ccccc21)c1cnc2n(c1=O)CCS2 (stereo not drawn) show?
Response line: < 5%

Prompt line: Bench note: what activation at 0.1 µM did CC1CCC(NC(=O)c2cnc3n(c2=O)CCS3)CC1 (stereo not drawn) show?
Response line: < 5%

Prompt line: Bench note: what activation at 0.1 µM did `C#Cc1ccc(NC(=O)c2cnc3cccc(C)n3c2=O)cc1` show?
Response line: < 5%

Prompt line: Bench note: what activation at 0.1 µM did `C#Cc1ccc(NC(=O)c2cnc3n(c2=O)CCS3)cc1` show?
Response line: < 5%

Prompt line: Bench note: what activation at 0.1 µM did `CCc1ccc(NC(=O)c2cnc3scc(C)n3c2=O)cc1` show?
Response line: < 5%

Prompt line: Bench note: what activation at 0.1 µM did `CCc1ccc(NC(=O)c2cnc3sccn3c2=O)cc1` show?
Response line: 5 to 20%

Prompt line: Bench note: what activation at 0.1 µM did `Cc1csc2ncc(C(=O)Nc3ccc4c(c3)OCO4)c(=O)n12` show?
Response line: < 5%
